Reported pIC50, MMP-3 (stromelysin) (Homo sapiens, UniProt P08254).
// scale note: pIC50 = -log10(conc_M); give the bare number

{"Compound": "O=C(CNS(=O)(=O)c1ccc(N2CCC(c3ccccc3)CC2)cc1)NO", "pIC50": 7.72}
{"Compound": "CN(C)N=C(CCC(=O)O)c1ccc(-c2ccc(Cl)cc2)cc1", "pIC50": 6.03}

*Q* State its pIC50 on MMP-3 (stromelysin) (Homo sapiens, UniProt P08254): CNC(=O)[C@@H](NC(=O)[C@@H](CC(=O)NO)CC(C)C)C(C)(C)C [RO-31-9790, reference compound]
Sequence (P08254 100-477, species assumed): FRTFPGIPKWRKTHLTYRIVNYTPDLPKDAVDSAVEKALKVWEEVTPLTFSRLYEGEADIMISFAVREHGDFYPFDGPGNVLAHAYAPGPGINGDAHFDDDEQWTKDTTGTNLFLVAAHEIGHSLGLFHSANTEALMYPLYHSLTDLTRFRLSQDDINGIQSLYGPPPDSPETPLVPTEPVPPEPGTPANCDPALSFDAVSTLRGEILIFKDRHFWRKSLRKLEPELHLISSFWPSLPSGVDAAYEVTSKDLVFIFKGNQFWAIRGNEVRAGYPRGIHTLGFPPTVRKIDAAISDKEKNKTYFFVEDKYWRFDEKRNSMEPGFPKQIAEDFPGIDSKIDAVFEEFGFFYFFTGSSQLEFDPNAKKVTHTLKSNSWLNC
*A* 6.33

*Q* State its pIC50 on MMP-3 (stromelysin) (Homo sapiens, UniProt P08254): `O=C(O)CCC(=O)c1ccc(N2CCC(c3ccccc3)CC2)cc1`
*A* 6.85

*Q* State its pIC50 on MMP-3 (stromelysin) (Homo sapiens, UniProt P08254): CC(C)CC(CC(=O)NO)C(=O)N[C@@H](CC(C)C)C(=O)N[C@@H](Cc1ccccc1)C(N)=O (some centres unmarked) [U24522, reference compound]
*A* 7.70
